// provenance: patent US10894775B2

- Test target: glutathione-S-transferase (GST) tagged LXRalpha LBD (ligand binding domain) (Homo sapiens)
- Construct: purchased Invitrogen pv4655
- Measurement description: LanthaScreen TR-FRET Liver X Receptor Coactivator Assay, LXR alpha
- Type: biochemical
- Details: efficacy (Emax) in relation to reference dual agonist T0901317; read-out: LXR alpha actiivty at max dose (%)
Threshold rule: Emax greater than or equal to 10% is t; below that, f.

For orientation, consider the following solved cases.
# input Evaluate CN(C)C(=O)c1ccc(CCCC2CC3(CCN(C(=O)C(O)(c4ccccc4)C(F)(F)F)CC3)C2)cc1Cl (single isomer, unassigned) : Emax at minimum 10%?
# output t

# input Is Emax for COc1cccc([C@@](O)(C(=O)N2CCC3(CC2)C[C@H]3CCCc2ccc(C(=O)NC3CC3)c(Cl)c2)C(F)(F)F)c1 (single isomer, unassigned) at or above 10%?
# output f

# input Does CN(C)C(=O)c1ccc(N(C)CCC[C@@H]2CC23CCN(C(=O)[C@](O)(c2ccccc2)C(F)(F)F)CC3)cc1Cl (single isomer, unassigned) have a reported Emax of at least 10%?
# output t

# input I'd appreciate it if you could say whether CN(C)C(=O)c1ccc(NCCC[C@H]2CC23CCN(C(=O)[C@](O)(c2ccccc2)C(F)(F)F)CC3)cc1Cl (single isomer, unassigned) has Emax at least equal to 10%.
# output t

# input Answer whether Emax of CN(C)C(=O)c1ccc(NCCC2CCN(C(=O)OCc3ccccc3)CC2)cc1Cl is greater than or equal to 10%.
# output t

# input Item CN(C)C(=O)c1ccc(CCCCC2CCN(C(=O)C(C)(C)c3ccccc3)CC2)cc1Cl with Emax of 10% or above?
# output t

# input Check the entry CC(CCCC1CCN(C(=O)[C@](O)(c2cccc(Cl)c2)C(F)(F)F)CC1)Nc1ccc(C(=O)N(C)C)c(Cl)c1 (single isomer, unassigned) : does Emax equal or exceed 10%?
# output t

# input Kindly determine if Emax recorded for COc1cccc([C@@](O)(C(=O)N2CCC(CCCC(C)Nc3ccc(C(=O)N(C)C)c(Cl)c3)CC2)C(F)(F)F)c1 (single isomer, unassigned) is above or exactly 10%.
# output f

***
# input Determine whether this compound has Emax no lower than 10%: CN(C)C(=O)c1ccc(CCCC2CC3(CCN(C(=O)C(O)(c4cccc(OC(F)(F)F)c4)C(F)(F)F)CC3)C2)cc1Cl (single isomer, unassigned)
# output f

* * *

- Test target: glutathione-S-transferase (GST) tagged LXRalpha LBD (ligand binding domain) (Homo sapiens, UniProt Q13133)
- Construct: purchased Invitrogen pv4655
- Sequence (Q13133 209-447 limits assumed): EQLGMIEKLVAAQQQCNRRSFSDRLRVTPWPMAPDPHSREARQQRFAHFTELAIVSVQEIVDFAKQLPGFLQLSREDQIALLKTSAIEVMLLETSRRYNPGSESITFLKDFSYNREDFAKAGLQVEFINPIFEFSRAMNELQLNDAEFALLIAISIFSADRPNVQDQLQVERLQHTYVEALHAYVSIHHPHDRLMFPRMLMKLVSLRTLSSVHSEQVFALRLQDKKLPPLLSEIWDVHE
- Measurement description: LanthaScreen TR-FRET Liver X Receptor Coactivator Assay, LXR alpha
- Type: biochemical
- Details: efficacy (Emax) in relation to reference dual agonist T0901317; read-out: LXR alpha actiivty at max dose (%)
Reported metric: Emax (%)
// return numeric value only (unit: %, not printed)

# input Returns the measured Emax for the input compound. Input: CN(C)C(=O)c1ccc(NCCC2CC3(CCN(C(=O)C(O)(c4ccccc4)C(F)(F)F)CC3)C2)cc1Cl (single isomer, unassigned)
# output 39

# input Can you share its Emax? I mean this compound: CC(CC1CC12CCN(C(=O)C1(c3ccccc3)CCC1)CC2)Nc1ccc(C(=O)N(C)C)c(Cl)c1 (single isomer, unassigned)
# output 56

# input What value of measured Emax is listed for CNC(=O)c1ccc(NCCCCC2CCN(C(=O)C(O)(c3cc(Cl)cc(Cl)c3)C(F)(F)F)CC2)cc1Cl (single isomer, unassigned) ?
# output 0

# input Endpoint output: Emax of CCOc1cccc(C(O)(C(=O)N2CCC3(CCC(Sc4ccc(C(=O)N(C)C)c(Cl)c4)CC3)CC2)C(F)(F)F)c1 (single isomer, unassigned) . Value?
# output 0

# input Need Emax of CNC(=O)c1ccc(NCCCCC2CCN(C(=O)C(O)(c3cccc(OC(C)C)c3)C(F)(F)F)CC2)cc1Cl (single isomer, unassigned) , thanks.
# output 19

Others:
# input What does the data say about its Emax? Entry: CNC(=O)c1ccc(CCCCCC2CCN(C(=O)C(O)(c3cccc(OC)c3)C(F)(F)F)CC2)cc1Cl (single isomer, unassigned)
# output 27

# input Query (compound): COc1cccc(C(O)(C(=O)N2CCC3(CCC(Sc4ccc(C(=O)N(C)C)c(Cl)c4)CC3)CC2)C(F)(F)F)c1 (single isomer, unassigned) ; field requested: Emax
# output 23

# input Reported Emax, compound CN(C)C(=O)c1ccc(NCCCCC2CCN(C(=O)OCc3ccccc3)CC2)cc1Cl : ____
# output 14

# input Would you mind telling me what Emax value was observed for CN(C)C(=O)c1ccc(NC[C@H]2C[C@H]2C2CCN(C(=O)[C@](O)(c3ccccc3)C(F)(F)F)CC2)cc1Cl (single isomer, unassigned) ?
# output 35
